- Assay System: T1, human DR3 (full length, on cells) (human, UniProt Q93038 25-417)
- T1 sequence: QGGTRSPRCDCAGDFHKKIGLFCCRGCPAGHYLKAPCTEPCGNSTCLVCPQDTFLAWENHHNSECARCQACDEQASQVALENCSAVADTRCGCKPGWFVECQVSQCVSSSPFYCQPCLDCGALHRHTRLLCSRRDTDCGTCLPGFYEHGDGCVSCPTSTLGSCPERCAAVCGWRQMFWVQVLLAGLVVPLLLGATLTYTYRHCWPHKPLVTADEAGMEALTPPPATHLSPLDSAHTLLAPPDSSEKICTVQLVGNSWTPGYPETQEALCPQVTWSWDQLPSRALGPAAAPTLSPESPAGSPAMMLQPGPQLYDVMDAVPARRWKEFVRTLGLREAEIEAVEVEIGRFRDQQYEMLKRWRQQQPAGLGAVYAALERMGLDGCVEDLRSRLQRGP
- Experimental Details: cell-based or functional assay
Can you tell me IC50, TNFalpha inhibition, TL1A-activated CD4+ T cells, donor 2 for the items I'm about to list?
The answer is to be given in nM; state only the numeric part.

If you can, please state the reported IC50, TNFalpha inhibition, TL1A-activated CD4+ T cells, donor 2 value of 0123 (chimeric Fab of 27F44, human IgG4 constant domain, hinge Cys->Ser) (Fab, V domains shown, murine variable domains, human IgG4 constant domain (IgG4-Ser)) VH: EVKLVESGGGLVKPGGSLKLSCSASGFAFSNYDMSWVRQTPEKRLEWVAAFSSDGYTFYPDSLKGRFTISRDNARNTLYLQMSSLGSEDTALYCCARHADYANYPVMDYWGQGTSVTVSS VL: DIVLAQSPASLLVSLGQRATISCRASKSVSTSGYSYMHWYQQKPGQPPKLLIYLASNLESGVPARFSGSGSGTDFTLNIHPVEEEDAATYYCQHSRELPLTFGAGTMLELKR . 0.32

If you can, please state the reported IC50, TNFalpha inhibition, TL1A-activated CD4+ T cells, donor 2 value of 0130 (recombinant murine Fab of 45F36) (Fab, V domains shown, murine Fab; also called 00130) VH: EVQLVESGGGLVKPGGSLKLSCAASGFTFSSYAMSWVRQSPDKRLEWVAEISSGDTYTYYPDTVTGRFTISRDNAKKTLYLEMSGLRSEDTAMYYCARDREAYYGQQYVMDYWGQGTSVTVSS VL: DIVLTQSPASLAVSLGLSVTISCRASESIEYSGTSFLQWYQQKPGQPPRLLIYGSSTVESGVPARFSGSGSGTDFSLNIHPVEEDDSAMYFCQQSRRLPWTFGGGTKLEIKR . 1.77

If you can, please state the reported IC50, TNFalpha inhibition, TL1A-activated CD4+ T cells, donor 2 value of 0124 (chimeric Fab of 28F26, human IgG4 constant domain, hinge Cys->Ser) (Fab, V domains shown, murine variable domains, human IgG4 constant domain (IgG4-Ser)) VH: EVKVVESGGGLVKPGGSLKLSCAASGFVFSSYDMSWVRQIPEKRLEWVAAISSGDYYTYYPDSVKGRFTISRDDARNTLYLQMSSLRSEDTALYYCARHRGGNYPQYAMDYWGQGTSVTVSS VL: DILLTQSPASFAVSLGQRATISCRASKSVSTSGYNYIHWYQQKPGQPPKLLIYLTSNLESGVPARFSGSGSGTDFTLNIHPVEEEDAATYYCQHSRELPFTFGSGTKLEIKR . 1.21

If you can, please state the reported IC50, TNFalpha inhibition, TL1A-activated CD4+ T cells, donor 2 value of 0228 (humanized Fab of 27F44, IgG4, hz0072VH S49A / hz0072VL) (Fab, V domains shown, IgG4-Cys, hz (humanized IgG4 Fab with the hinge cysteine kept)) VH: EVQLVESGGGLVQPGGSLRLSCAASGFTFSNYDMSWVRQATGKGLEWVAAFSSDGYTFYPGSVKGRFTISRENAKNSLYLQMNSLRAGDTAVYYCARHADYANYPVMDYWGQGTLVTVSS VL: DIQMTQSPSSLSASVGDRVTITCRASKSVSTSGYSYMHWYQQKPGKAPKLLIYLASNLESGVPSRFSGSGSGTDFTLTISSLQPEDFATYYCQHSRELPLTFGGGTKVEIKR . 0.17

If you can, please state the reported IC50, TNFalpha inhibition, TL1A-activated CD4+ T cells, donor 2 value of 0143 (chimeric Fab of 44F434, human IgG4 constant domain, hinge Cys->Ser) (Fab, V domains shown, IgG4-Ser, chimeric) VH: EVQLVESGGDLVMPGGSLKLSCAASGFIFSSYGLSWIRQTPDKRLEWVATISGGDSYTYYPDSVKGRFTISSDNAKNTLYLQMTSLKSEDTAMYYCATQREIYYGTYYALDHWGQGTSVTVSS VL: DIQMTQTTSSLSASLGDRVTISCRASQDINNYLNWYQQKPDGTVKLLIYYTSRLQSGVPSRFSGSGSGTDYSLTISSLEQDDIATYFCQQGSPLPWTFGGGTKLEIKR . 0.074
